Data credit: patent US20260356851A1

# IC50 listing for each entry below
# System: pERK1/2 (Thr202/Tyr204), NCI-1H441 (KRAS G12V) (Homo sapiens, UniProt P01116, G12V)
# Construct: pERK1/2 HTRF read-out
# Sequence (P01116 1-188 isoform P01116-2 G12V): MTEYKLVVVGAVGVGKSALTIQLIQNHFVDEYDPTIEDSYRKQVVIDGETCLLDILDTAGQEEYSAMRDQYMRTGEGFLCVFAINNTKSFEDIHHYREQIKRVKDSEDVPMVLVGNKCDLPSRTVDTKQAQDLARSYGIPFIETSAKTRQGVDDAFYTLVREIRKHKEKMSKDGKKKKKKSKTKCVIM
# Procedure summary: Assay of intracellular pERK1/2 (Thr202/Tyr204) phosphorylation in NCI-H441 cells (KRAS G12V)
# Format: cell-based
# Measurement context: pERK1/2, 2 days, read-out: NCI-H441 (KRAS G12V) IC50

Below, 4 compounds whose answers are already recorded.
CCc1c(F)ccc2cc(O)cc(-c3nc4c5c(nc(OCC6(CN(C)C7CC7)CC6)nc5c3F)N(C(C)c3cccnc3N)[C@@H](C)CO4)c12 (stereo partly shown) [Compound 397]	0.8 nM
CCN1CCC[C@H]1COc1nc2c3c(nc(-c4cc(N)cc(C)c4C(F)(F)F)c(F)c3n1)OCCN2C(C)c1cccnc1N (stereo partly shown) [Compound 114]	0.9 nM
CC(c1cccnc1N)N1c2nc(OC[C@@]34CCCN3C[C@H](F)C4)nc3c(F)c(-c4cc(O)cc5ccc(F)c(F)c45)nc(c23)OC[C@@H]1C (single isomer, unassigned) [Compound 275]	0.8 nM
Cc1c(F)c(N)cc(-c2nc3c4c(nc(OC[C@]56CCCN5C[C@H](F)C6)nc4c2F)N(C(C)c2cccnc2N)CCO3)c1C(F)(F)F (stereo partly shown) [Compound 164]	0.3 nM

// fetch pERK1/2 (Thr202/Tyr204), NCI-1H441 (KRAS G12V) (Homo sapiens, UniProt P01116, G12V) IC50 for Cc1c(F)c(N)cc(-c2nc3c4c(nc(OC[C@]56CCCN5C[C@@H](F)C6)nc4c2F)N(C(C)c2cccnc2N)CCO3)c1C(F)(F)F (stereo partly shown) [Compound 163]
0.4 nM

// fetch pERK1/2 (Thr202/Tyr204), NCI-1H441 (KRAS G12V) (Homo sapiens, UniProt P01116, G12V) IC50 for Cc1c(F)c(N)cc(-c2nc3c4c(nc(OC[C@@]56CCCN5C[C@H](F)C6)nc4c2F)N(C2CCNC2)CCO3)c1C(F)(F)F (stereo partly shown) [Compound 198]
> 100 nM

// fetch pERK1/2 (Thr202/Tyr204), NCI-1H441 (KRAS G12V) (Homo sapiens, UniProt P01116, G12V) IC50 for C#Cc1c(F)ccc2cc(O)cc(-c3nc4c5c(nc(OC[C@@H]6C[C@@H](F)CN6C)nc5c3F)N(C(C)c3cccnc3N)[C@@H](C)CO4)c12 (single isomer, unassigned) [Compound 284]
0.5 nM

// fetch pERK1/2 (Thr202/Tyr204), NCI-1H441 (KRAS G12V) (Homo sapiens, UniProt P01116, G12V) IC50 for CC(c1cccnc1N)N1CCOc2nc(-c3cc(O)cc4ccc(F)c(F)c34)c(F)c3nc(OC[C@@H]4CCCN4C)nc1c23 (single isomer, unassigned) [Compound 41]
820 nM

// fetch pERK1/2 (Thr202/Tyr204), NCI-1H441 (KRAS G12V) (Homo sapiens, UniProt P01116, G12V) IC50 for Cc1cc(N)cc(-c2nc3c4c(nc(OC[C@@H]5CC(F)(F)CN5C)nc4c2F)N(C(C)c2cccnc2N)CCO3)c1C(F)(F)F (stereo partly shown) [Compound 70]
2 nM

###

# System: pERK1/2 (Thr202/Tyr204), NCI-1H358 (KRAS G12C) (Homo sapiens, UniProt P01116, G12C)
# Construct: pERK1/2 HTRF read-out
# Sequence (P01116 1-188 isoform P01116-2 G12C): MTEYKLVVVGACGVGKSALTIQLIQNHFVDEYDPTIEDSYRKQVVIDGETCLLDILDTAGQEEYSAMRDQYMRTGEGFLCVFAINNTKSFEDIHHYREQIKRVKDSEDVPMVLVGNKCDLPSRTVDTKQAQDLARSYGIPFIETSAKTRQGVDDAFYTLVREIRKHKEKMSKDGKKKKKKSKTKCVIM
# Procedure summary: Assay of intracellular pERK1/2 (Thr202/Tyr204) phosphorylation in NCI-H358 cells (KRAS G12C)
# Type: cell-based
# Measurement context: pERK1/2, 2 days, read-out: NCI-H358 (KRAS G12C) IC50
# pIC50 listing for each entry below
Lab note: report pIC50 as minus log10 of the concentration in molar units, number only.

Below, 4 compounds whose answers are already recorded.
Cc1cc(N)cc(-c2nc3c4c(nc(OC[C@@H]5CCCN5CCO)nc4c2F)N(C(C)c2cccnc2N)CCO3)c1C(F)(F)F (stereo partly drawn)	7.92
CCC(c1cccnc1N)N1CCOc2nc(-c3cc(N)c(F)c(Cl)c3C(F)(F)F)c(F)c3nc(OC[C@@]45CCCN4C[C@H](F)C5)nc1c23 (single isomer, unassigned) [Compound 215]	7.68
Cc1cc(F)c2sc(N)nc2c1-c1nc2c3c(nc(OC[C@@]45CCCN4C[C@H](F)C5)nc3c1F)N(C(C)c1cccnc1N)[C@@H](C)CO2 (stereo partly drawn)	8.70
Cc1ccnc(N)c1C(C)N1CCOc2nc(-c3cc(N)c(F)c(C)c3C(F)(F)F)c(F)c3nc(OC[C@@]45CCCN4C[C@H](F)C5)nc1c23 (single isomer, unassigned) [Compound 257]	8.70

Let us move to another entry and its pIC50.
Item CC(c1cccnc1N)N1CCOc2nc(-c3cc(O)cc4ccc(F)c(F)c34)c(F)c3nc(OCC4(CN(C)C)CC4)nc1c23 (stereo not drawn) has what recorded pIC50?
8.10

###

# System: pERK1/2 (Thr202/Tyr204), NCI-1H358 (KRAS G12C) (Homo sapiens, UniProt P01116, G12C)
# Construct: pERK1/2 HTRF read-out
# Procedure summary: Assay of intracellular pERK1/2 (Thr202/Tyr204) phosphorylation in NCI-H358 cells (KRAS G12C)
# Assay type: cell-based
# Measurement context: pERK1/2, 2 days, read-out: NCI-H358 (KRAS G12C) IC50
Readout type: IC50 (nM)
Your answer is read as nM, so omit the unit and give the number.

// fetch pERK1/2 (Thr202/Tyr204), NCI-1H358 (KRAS G12C) (Homo sapiens, UniProt P01116, G12C) IC50 for [2H]C1([2H])Oc2nc(-c3cc(N)c(F)c(Cl)c3C(F)(F)F)c(F)c3nc(OC[C@@]45CCCN4C[C@H](F)C5)nc(c23)N(C(C)c2cccnc2N)C1([2H])[2H] (single isomer, unassigned) [Compound 207]
9

// fetch pERK1/2 (Thr202/Tyr204), NCI-1H358 (KRAS G12C) (Homo sapiens, UniProt P01116, G12C) IC50 for Cc1c(F)c(N)cc(-c2nc3c4c(nc(OC[C@@H]5C[C@@H](F)CN5C)nc4c2F)N(C(C)c2cccnc2N)[C@@H](C)CO3)c1C(F)(F)F (single isomer, unassigned) [Compound 277]
93

###

# System: pERK1/2 (Thr202/Tyr204), PANC-1 (KRAS G121D) (Homo sapiens, UniProt P01116, G12D)
# Construct: pERK1/2 HTRF read-out
# Sequence (P01116 1-188 isoform P01116-2 G12D): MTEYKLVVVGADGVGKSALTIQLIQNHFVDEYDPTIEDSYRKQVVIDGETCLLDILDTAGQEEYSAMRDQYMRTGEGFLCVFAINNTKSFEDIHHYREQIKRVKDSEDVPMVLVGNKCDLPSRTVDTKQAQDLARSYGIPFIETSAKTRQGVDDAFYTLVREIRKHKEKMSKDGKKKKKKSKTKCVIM
# Procedure summary: Assay of intracellular pERK1/2 (Thr202/Tyr204) phosphorylation in PANC-1 cells (KRAS G12D)
# Format: cell-based
# Measurement context: pERK1/2, 2 days, read-out: PANC-1 (KRAS G12D) IC50
# pIC50 listing for each entry below
Lab note: report pIC50 as minus log10 of the concentration in molar units, number only.

Below, 2 molecules whose answers are already recorded.
CC(c1cccnc1N)N1CCOc2nc(-c3cc(N)ccc3C(F)(F)F)c(F)c3nc(OC[C@@]45CCCN4C[C@H](F)C5)nc1c23 (single isomer, unassigned) [Compound 54]	7.68
C[C@@H](c1cccnc1N)N1c2nc(OC[C@@]34CCCN3C[C@H](F)C4)nc3c(F)c(-c4c5ccccc5cc5[nH]ncc45)nc(c23)O[C@@H]2CCC[C@@H]21	6.08

// fetch pERK1/2 (Thr202/Tyr204), PANC-1 (KRAS G121D) (Homo sapiens, UniProt P01116, G12D) pIC50 for C#Cc1c(F)ccc2cc(O)cc(-c3nc4c5c(nc(OC[C@@H]6C[C@@H](F)CN6C)nc5c3F)N(C(C)c3cccnc3N)[C@@H](C)CO4)c12 (single isomer, unassigned) [Compound 284]
9.52

// fetch pERK1/2 (Thr202/Tyr204), PANC-1 (KRAS G121D) (Homo sapiens, UniProt P01116, G12D) pIC50 for Cc1c(F)c(N)cc(-c2nc3c4c(nc(OC[C@@H]5C[C@@H](F)CN5C)nc4c2F)N(C(C)c2cccnc2N)CCO3)c1C(F)(F)F (some centres unmarked)
7.89

###

# System: pERK1/2 (Thr202/Tyr204), NCI-1H358 (KRAS G12C) (Homo sapiens, UniProt P01116, G12C)
# Construct: pERK1/2 HTRF read-out
# Procedure summary: Assay of intracellular pERK1/2 (Thr202/Tyr204) phosphorylation in NCI-H358 cells (KRAS G12C)
# Assay type: cell-based
# Measurement context: pERK1/2, 2 days, read-out: NCI-H358 (KRAS G12C) IC50
pIC50: −log10 of the molar value.
Threshold check on pIC50: at or above 9 gives label 1, strictly below gives label 0.

[2H]C([2H])(Oc1nc2c3c(nc(-c4cc(N)cc(C)c4C(F)(F)F)c(F)c3n1)OCCN2C(C)c1cccnc1N)[C@@H]1CCC([2H])([2H])N1C([2H])([2H])[2H] (single isomer, unassigned) [Compound 103]	label 0
[2H]C1([2H])CC[C@@]2(C([2H])([2H])Oc3nc4c5c(nc(-c6cc(O)cc(Cl)c6C6CC6)c(F)c5n3)OCCN4C(C)c3cccnc3N)C[C@@H](F)CN12 (single isomer, unassigned)	label 1
Cc1c(C(F)(F)F)c(-c2nc3c4c(nc(OC[C@@]56CCCN5C[C@H](F)C6)nc4c2F)N(C(C)c2cccnc2N)[C@@H](C)CO3)c2c(Cl)n[nH]c2c1F (single isomer, unassigned) [Compound 382]	label 0
CC(=O)Nc1ncccc1C(C)N1CCOc2nc(-c3cc(N)c(F)c(C)c3C(F)(F)F)c(F)c3nc(OC[C@@]45CCCN4C[C@H](F)C5)nc1c23 (some centres unmarked)	label 0

In plain terms: is recorded pIC50 at least 9 for Cc1ccc(C(C)N2CCOc3nc(-c4cc(N)c(F)c(C)c4C(F)(F)F)c(F)c4nc(OC[C@@]56CCCN5C[C@H](F)C6)nc2c34)c(N)n1 (single isomer, unassigned) [Compound 251] ?
label 0

In plain terms: is recorded pIC50 at least 9 for Cc1c(F)c(N)cc(-c2nc3c4c(nc(OC[C@@H]5C[C@@H](F)CN5C)nc4c2F)N(C(C)c2cccnc2N)[C@@H](C)CO3)c1C(F)(F)F (single isomer, unassigned) [Compound 278] ?
label 1

In plain terms: is recorded pIC50 at least 9 for CC(c1cccnc1N)N1c2nc(OC[C@@]34CCCN3C[C@H](F)C4)nc3c(F)c(-c4c(C(F)(F)F)ccc5c4CCCN5)nc(c23)OC[C@@H]1C (single isomer, unassigned; diastereomer 2) [Compound 339] ?
label 0
